# assayedSystem: human recombinant P2X7 receptor (Homo sapiens (Human), UniProt Q99572)
# Sequence (Q99572 whole entry): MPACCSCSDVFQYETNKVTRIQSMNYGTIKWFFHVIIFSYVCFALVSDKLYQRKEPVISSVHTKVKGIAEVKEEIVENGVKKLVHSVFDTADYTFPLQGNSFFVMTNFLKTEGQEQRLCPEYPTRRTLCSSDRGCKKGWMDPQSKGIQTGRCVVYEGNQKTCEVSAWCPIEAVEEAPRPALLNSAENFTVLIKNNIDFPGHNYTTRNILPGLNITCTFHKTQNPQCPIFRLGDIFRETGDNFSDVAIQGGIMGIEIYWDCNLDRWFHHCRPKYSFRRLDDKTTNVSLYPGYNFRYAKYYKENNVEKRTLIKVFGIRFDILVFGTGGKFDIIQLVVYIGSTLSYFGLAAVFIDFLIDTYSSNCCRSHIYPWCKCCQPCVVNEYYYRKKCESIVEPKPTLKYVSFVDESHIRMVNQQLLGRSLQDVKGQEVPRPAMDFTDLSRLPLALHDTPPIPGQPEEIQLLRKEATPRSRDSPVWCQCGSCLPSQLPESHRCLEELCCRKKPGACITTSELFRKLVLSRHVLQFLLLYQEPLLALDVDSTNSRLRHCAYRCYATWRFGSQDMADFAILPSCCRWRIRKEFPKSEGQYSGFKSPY
# measurementNotes: YO-PRO assay: P2X7 receptor antagonistic activity
# Type: cell-based
# testParameters: HEK cells expressing human P2X7
pIC50: −log10 of the molar value.
A collection of molecules and their measured pIC50
readoutKind: pIC50

In [3]: df
Out[3]:
                                    molecule  readoutkind  boundtype  valuereported
 0  N#Cc1cccc(CC(=O)NC2COc3ncccc32)c1Cl (racemic) [Example 75]        pIC50          =           7.66
 1  O=C(Cc1ccc(Cl)cc1Cl)NC1COc2cnc(Cl)cc21 (racemic)        pIC50          =           6.46
 2  N#Cc1cc(Cl)cc(Cl)c1CC(=O)NC1COc2ncccc21 (racemic)        pIC50          =           6.49
 3   Cc1ccnn1CC(=O)NC1CCOc2ncccc21 (racemic)        pIC50          <           5.24
 4  O=C(Cc1cccnc1Cl)NC1CCOc2ncccc21 (racemic)        pIC50          =           6.11
 5  Cc1cc(CC(=O)NC2CCOc3ncccc32)on1 (racemic)        pIC50          =           5.68
 6  CC(C(=O)NC1COc2ncccc21)c1ccc(Cl)cc1Cl (single isomer, unassigned) [Example 93]        pIC50          =           6.86
 7  O=C(Cc1cccc(C(F)(F)F)c1Cl)NC1COc2ncccc21 (single isomer, unassigned) [Example 73]        pIC50          =           8.00
 8  O=C(Cc1cccc(C(F)(F)F)c1Cl)NC1COc2nc(Cl)ccc21 (racemic)        pIC50          =           7.19
 9  N#Cc1cccc(CC(=O)NC2COc3ncccc32)c1C(F)(F)F (racemic)        pIC50          =           7.55
10  O=C(Cc1cc(Cl)ccc1C(F)(F)F)NC1COc2ncccc21 (racemic)        pIC50          =           5.09
11  Cc1cc(Cl)cc(Cl)c1CC(=O)NC1COc2nnccc21 (racemic)        pIC50          =           8.17
12  O=C(COc1ccc(Cl)cc1Cl)NC1COc2ncccc21 (racemic)        pIC50          <           5.08
13  Cc1ccc(F)c(CC(=O)NC2COc3ncccc32)c1Cl (racemic)        pIC50          =           6.19
14  O=C(NC1COc2ncccc21)C1Cc2ccc(Cl)cc2C1 (stereo not shown)        pIC50          =           5.33
15  Cc1cc(Cl)cc(Cl)c1CC(=O)NC1COc2cncc(C)c21 (racemic)        pIC50          =           7.85
16  O=C(NC1CCOc2ncccc21)C1(c2ccc(Cl)cc2Cl)CC1 (racemic)        pIC50          =           6.53
17  Cc1cc(Cl)cc(Cl)c1CC(=O)NC1COc2nccc(C(F)(F)F)c21 (racemic)        pIC50          =           5.17
18  O=C(Cc1cccc(C(F)(F)F)c1Cl)NC1COc2c1ccc[n+]2[O-] (racemic)        pIC50          =           6.91
19  Cc1cc(Cl)cc(Cl)c1CC(=O)NC1COc2cnccc21 (racemic) [Example 89]        pIC50          =           8.49
20  O=C(Cc1cccc(C(F)(F)F)c1Cl)NC1COc2ncccc21 (single isomer, unassigned) [Example 74]        pIC50          =           8.33
21  NC(=O)c1cccc(CC(=O)NC2COc3ncccc32)c1Cl (racemic)        pIC50          =           5.91
22  O=C(Cc1c(F)ccc(Cl)c1Cl)NC1COc2ncccc21 (racemic)        pIC50          =           6.68
23  CC(C(=O)NC1COc2ncccc21)c1ccc(Cl)cc1 (stereo not shown)        pIC50          =           6.08
24  O=C(Cc1c(Cl)cc(Cl)cc1C1CC1)NC1COc2ncccc21 (racemic)        pIC50          =           7.27
25  O=C(Cc1cccc(C(F)(F)F)c1Cl)NC1COc2nccc(C(F)(F)F)c21 (racemic)        pIC50          =           6.06
26  O=C(Cc1cccc(C(F)(F)F)c1Cl)NC1CCOc2ncccc21 (racemic)        pIC50          =           7.77
27  O=C(Cc1c(F)cc(Cl)cc1Cl)NC1CCOc2ncccc21 (racemic)        pIC50          =           6.41
28  O=C(Cc1cccc(C(F)(F)F)c1Cl)NC1COc2cncc(C3CC3)c21 (racemic)        pIC50          =           6.30
29  COc1ccnc2c1C(NC(=O)Cc1cccc(C(F)(F)F)c1Cl)CO2 (racemic)        pIC50          =           6.57
30  O=C(Cc1cccc(C(F)(F)F)c1Cl)NC1COc2c[n+]([O-])ccc21 (racemic)        pIC50          =           6.78
31  O=C(Cc1cccc(OC(F)(F)F)c1Cl)NC1COc2ncccc21 (racemic)        pIC50          =           7.15
32  N#Cc1c(Cl)ccc(CC(=O)NC2COc3ncccc32)c1Cl (racemic)        pIC50          =           6.66
33  O=C(NC1COc2ncccc21)C(CO)c1ccc(Cl)cc1Cl (stereo not shown)        pIC50          =           7.68

Provenance of the data: patent US9221832B2
